# target or test system: T1, PUF4 RNA-binding domain (Saccharomyces cerevisiae, UniProt P25339 537-888)
# T1 sequence: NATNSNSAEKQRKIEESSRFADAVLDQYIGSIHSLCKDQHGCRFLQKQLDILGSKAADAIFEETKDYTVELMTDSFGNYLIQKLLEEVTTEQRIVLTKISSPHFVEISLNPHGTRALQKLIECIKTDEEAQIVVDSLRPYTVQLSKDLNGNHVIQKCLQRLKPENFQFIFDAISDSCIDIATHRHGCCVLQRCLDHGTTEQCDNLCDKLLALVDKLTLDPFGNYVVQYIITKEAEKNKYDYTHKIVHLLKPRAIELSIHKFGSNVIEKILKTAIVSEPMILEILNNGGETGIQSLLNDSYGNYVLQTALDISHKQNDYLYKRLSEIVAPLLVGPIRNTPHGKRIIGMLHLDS
# test summary: Mg; RNA-MaP; 20 mM Na-HEPES pH 7.4, 30 mM KOAc, 0.75 mM MgCl2, 0.1% Tween-20, 5% glycerol, 0.1 mg/mL BSA, 2 mM DTT; 25 C; 0.0125-409.6 nM protein
# experimental conditions: tags: N-His6-TEV cleaved; C-SNAP kept, Cy3B-labelled; label: tethered on chip by stalled RNA polymerase
observation type: pKd
Note: pKd values are expressed as the negative base-10 logarithm of concentration in M.

Some solved cases for reference:
>  <binder>
Ie_S4_P4E.1_K4.1_C4.1_H4.1_A4.1_[+6TC]_F4.1_T4.1 (ssRNA) RNA: UUUGACAACUGAUCGUUCUUUCUUGUAUAUCUUAUUCUUUCUCGAUCAGUUGUCUUU

>  <pKd>
8.32

$$$$
>  <binder>
UCUCUUUGUACGCUUUCUCUU (ssRNA) [Ic_S1_P4E.1_K4.1_C4.1_H4.1_A4.1_[T5C]_[A6G]_[T7C]_F4.1_[A9T]_T4.1]

>  <pKd>
7.29

$$$$
>  <binder>
ACAAACUCAACACUAUAUAACAAAC (ssRNA) [Id_iii_S3_P3E.7_K3.3_C3.3_[T-1A]_H3.3_A3.1_F3.1_T3.2]

>  <pKd>
5.75

$$$$

## Input Need pKd of Id_ii_S2_P5E.3_K5.2_C5.2_[C-2T]_[T-1G]_H5.2_A5.1_F5.1_T5.2_[T11G]_[A12C] (ssRNA) RNA: UUUGAUUAAUAUGAUAUCGUUCUUUCUUGUAUAUUAUUAGCUUCUUUCUCGAUAUCAUAUUAAUCUUU , thanks.
## Output 9.29

## Input Need pKd of Ic_S2_P5E.1_K5.1_C5.1_H5.1_A5.1_[T5C]_[T6C]_[A7T]_F5.1_[T8C]_[T9C]_T5.1 (ssRNA) RNA: UUUGAUUAAUAUGAUAUCGUUCUUUCUUGUACCUCCAUUCUUUCUCGAUAUCAUAUUAAUCUUU , thanks.
## Output 6.96

## Input Need pKd of UCUCUUUGUAUGCAAUCUCUU (ssRNA) [Ic_S1_P4E.1_K4.1_C4.1_H4.1_A4.1_[A6G]_[T7C]_F4.1_[T8A]_T4.1] , thanks.
## Output 6.29
